Cited source for all entries: patent US12692247B2

Target: Recombinant human DDR2 (Homo sapiens)
Construct: DDR2 (1.75 nM; aa427-855 containing a GST tag)
Sequence (Q16832 427-855): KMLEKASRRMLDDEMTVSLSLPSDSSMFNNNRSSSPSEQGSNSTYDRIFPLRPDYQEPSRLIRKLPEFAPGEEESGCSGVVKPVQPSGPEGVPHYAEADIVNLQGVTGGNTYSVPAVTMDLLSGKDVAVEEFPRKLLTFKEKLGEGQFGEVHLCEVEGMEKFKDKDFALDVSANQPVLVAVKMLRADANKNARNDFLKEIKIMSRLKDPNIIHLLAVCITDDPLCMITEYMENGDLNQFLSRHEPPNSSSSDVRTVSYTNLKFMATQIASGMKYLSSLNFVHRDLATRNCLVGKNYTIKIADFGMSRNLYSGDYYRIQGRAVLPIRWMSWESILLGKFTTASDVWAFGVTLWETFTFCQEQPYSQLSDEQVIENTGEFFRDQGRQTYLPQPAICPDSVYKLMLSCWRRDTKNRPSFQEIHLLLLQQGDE
Assay: LanthaScreen Eu Kinase Binding Assay, DDR2
Conditions: recombinant human DDR2 (1.75 nM; aa427-855, GST tag), Kinase Tracer 178 10 nM, time-resolved fluorescence, at least two independent replicates; read-out: DDR2 pIC50 (converted)
readout.name: IC50

Worked cases, answers included:
>>> result("Cn1ncc2cc(Nc3cccc4ccn(CC(=O)NCC(F)(F)F)c(=O)c34)cc(C#N)c21")
"≥ 1000 nM"
>>> result("CN(c1ccc2c(cnn2C)c1)c1cccc2ccn(CC(=O)Nc3cnoc3)c(=O)c12")
"10 to 100 nM"
>>> result("Cn1ncc2cc(Nc3cccc4ccn(CC(=O)Nc5ccncc5)c(=O)c34)ccc21")
"≥ 1000 nM"
>>> result("Cn1ncc2cc(Nc3cccc4ccn(CC(=O)NCCC(F)(F)F)c(=O)c34)ccc21")
"≥ 1000 nM"
>>> result("CN(C)CCc1ccc(NC(=O)Cn2ccc3cccc(Nc4ccc5c(cnn5C)c4)c3c2=O)cc1C(F)(F)F")
"100 to 1000 nM"

Req: Which IC50 reading was recorded for the compound COc1ccc(NC(=O)Cn2ccc3cccc(Nc4ccc5c(cnn5C)c4)c3c2=O)cc1 ?
Resp: ≥ 1000 nM

Req: Which IC50 reading was recorded for the compound CC(=O)c1cccc(NC(=O)Cn2ccc3cccc(Nc4ccc5c(cnn5C)c4)c3c2=O)c1 ?
Resp: 10 to 100 nM

Req: Which IC50 reading was recorded for the compound COC(=O)c1cncc(NC(=O)Cn2ccc3cccc(Nc4ccc5c(cnn5C)c4)c3c2=O)c1 ?
Resp: 10 to 100 nM

Req: Which IC50 reading was recorded for the compound CC(C(=O)NCC(F)(F)F)n1ccc2cccc(Nc3ccc4c(cnn4C)c3)c2c1=O (centres unmarked) ?
Resp: ≥ 1000 nM

Req: Which IC50 reading was recorded for the compound Cn1ncc2cc(Nc3cccc4ccn(CC(=O)N5CCCCC5)c(=O)c34)ccc21 ?
Resp: 100 to 1000 nM

Req: Which IC50 reading was recorded for the compound Cn1ncc2cc(Nc3cc(F)cc4ccn(CC(=O)NCC(F)(F)F)c(=O)c34)ccc21 ?
Resp: ≥ 1000 nM

Req: Which IC50 reading was recorded for the compound Cn1ncc2cc(Nc3cccc4ccn(CC(=O)N5CCOC(C(F)(F)F)C5)c(=O)c34)ccc21 (centres unmarked) ?
Resp: ≥ 1000 nM

Req: Which IC50 reading was recorded for the compound Cn1ncc2cc(Nc3cccc4ccn(CC(=O)N5CCC[C@H]5CF)c(=O)c34)ccc21 ?
Resp: 10 to 100 nM

###

Molecular target: Recombinant human DDR2 (Homo sapiens, UniProt Q16832)
Construct: DDR2 (1.75 nM; aa427-855 containing a GST tag)
Experiment: LanthaScreen Eu Kinase Binding Assay, DDR2
Settings: recombinant human DDR2 (1.75 nM; aa427-855, GST tag), Kinase Tracer 178 10 nM, time-resolved fluorescence, at least two independent replicates; read-out: DDR2 pIC50 (converted)
readout.name: IC50

>>> result("Cc1n[nH]c2cc(Nc3cccc4ccn(CC(=O)Nc5cnoc5)c(=O)c34)ccc12")
"10 to 100 nM"
>>> result("Cn1ncc2cc(Nc3cccc4ccn(CC(=O)N5CCOCC5)c(=O)c34)ccc21")
"100 to 1000 nM"
>>> result("CC(NC(=O)Cn1ccc2cccc(Nc3ccc4c(cnn4C)c3)c2c1=O)C(F)(F)F (stereo not shown)")
"10 to 100 nM"

Shifting focus to the compound that follows.
Req: Which IC50 reading was recorded for the compound CN1CCC(NC(=O)Cn2ccc3cccc(Nc4ccc5c(cnn5C)c4)c3c2=O)CC1 ?
Resp: ≥ 1000 nM
